Please find below Ki measurements for 5-hydroxytryptamine receptor 1A (Homo sapiens, UniProt P08908), combined from several publications.
Response field label takes MET when Ki is strictly below 10 nM and NOT MET in all other cases.

compound | class_name
O=C1c2oc(C3CC3)nc2CCC1CCN1CCN(c2nsc3ccccc23)CC1 (centres unmarked) | MET
Cn1ncc2c1CCN(CCN1CCC(c3noc4ccccc34)CC1)C2=O | NOT MET
Cc1ccc2c(C3CCN(CCN4CCc5cccnc5C4=O)CC3)noc2c1 | NOT MET
CS(=O)(=O)Cc1ccc(CNC(=O)c2cc3cccc(N4CCN(CCc5ccccn5)CC4)c3o2)cc1 | MET
Cc1ncccc1OC[C@@H]1CN(CC(=O)N2c3ccccc3CC2C)CCO1.Cl (some centres unmarked) | NOT MET

API: query returns whether the compound falls strictly under 10 nM in Ki. Query: Cc1ccn(-c2ccc(N3CCN(CCCCc4c[nH]c5ccc(C#N)cc45)CC3)cc2)c(=O)c1
MET

API: query returns whether the compound falls strictly under 10 nM in Ki. Query: COc1cccc(CCNC(=O)c2cc3cccc(N4CCN(CCc5ccccn5)CC4)c3o2)c1
MET

API: query returns whether the compound falls strictly under 10 nM in Ki. Query: N#Cc1ccc2[nH]cc(CCCCN3CCN(c4ncc(-c5ccc(C(N)=O)cn5)cn4)CC3)c2c1
MET
